Measured Food intake (relative to vehicle) Day 1 values are reported for all entries that follow.
# Test system: Male Sprague Dawley (SD) rats
# protocol.text: Efficacy testing on appetite: acute food intake in ad libitum fed normal weight rats
# Format: in vivo, rat
# settings: single dose 30 nmol/kg, day 1 [0-24 hours]
Numbered stars: 1 amine (or outer) side, 2 acyl side, 3 side chain; on linkers, the order of the positions; unused ones are H or OH. Square brackets hold non-standard residues; d marks the D form. Side chains are listed from the residue outwards. * marks the point of attachment. C20 diacid = O=C(O)CCCCCCCCCCCCCCCCCCC(=O)*; C18 diacid = O=C(O)CCCCCCCCCCCCCCCCC(=O)*; C16 diacid = O=C(O)CCCCCCCCCCCCCCC(=O)*; γGlu = O=C(O)[C@H](CCC(=O)[*:2])N[*:1]; AEEA = NCCOCCOCC(=O)O; Aib = CC(C)(N)C(=O)O
Lab note: write values as number then unit, every time.

Solved cases (2 shown):
INSERT INTO results (substance, observation_type, val) VALUES
  ('Y[Aib]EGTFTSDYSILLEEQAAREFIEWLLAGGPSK([AEEA-AEEA-γGlu-C16 diacid])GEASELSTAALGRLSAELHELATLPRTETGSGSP-NH2 [Compound 11]', 'Food intake (relative to vehicle) Day 1', '−46%'),
  ('Y[Aib]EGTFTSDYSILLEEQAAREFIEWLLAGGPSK([AEEA-AEEA-γGlu-C18 diacid])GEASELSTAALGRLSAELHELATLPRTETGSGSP-NH2 [Compound 26]', 'Food intake (relative to vehicle) Day 1', '−11%');

Give the measured Food intake (relative to vehicle) Day 1 of H[Aib]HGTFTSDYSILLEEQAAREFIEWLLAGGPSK([AEEA-AEEA-γGlu-C20 diacid])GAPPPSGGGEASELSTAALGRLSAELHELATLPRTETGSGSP-NH2 [Compound 16] .
−39%

Name the reported Food intake (relative to vehicle) Day 1 value associated with the substance Y[Aib]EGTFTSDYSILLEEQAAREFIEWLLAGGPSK([AEEA-AEEA-γGlu-C18 diacid])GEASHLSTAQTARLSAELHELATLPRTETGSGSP-NH2 [Compound 35]
−42%

---

# target.desc: human GIP receptor (hGIPR) (Homo sapiens)
# Construct: expressed in transfected cells
# Sequence (P48546 22-466): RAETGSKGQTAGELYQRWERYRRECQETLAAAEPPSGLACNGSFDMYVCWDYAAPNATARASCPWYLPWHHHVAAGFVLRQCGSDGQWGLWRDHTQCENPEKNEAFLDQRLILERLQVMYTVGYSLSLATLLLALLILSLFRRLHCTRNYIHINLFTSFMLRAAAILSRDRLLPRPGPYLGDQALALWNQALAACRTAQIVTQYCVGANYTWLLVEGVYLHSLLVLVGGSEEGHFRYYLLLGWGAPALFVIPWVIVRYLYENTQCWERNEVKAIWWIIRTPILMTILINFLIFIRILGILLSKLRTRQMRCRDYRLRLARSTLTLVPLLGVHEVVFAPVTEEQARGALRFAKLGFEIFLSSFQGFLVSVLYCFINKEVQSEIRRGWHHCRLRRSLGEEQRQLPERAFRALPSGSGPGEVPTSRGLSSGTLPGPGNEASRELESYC
# protocol.text: GIP receptor assay, method A (CRE-luciferase reporter, BHK cells)
# Format: cell-based
# settings: method A, absence of HSA; read-out: hGIPR Potency, no HSA, EC50
Numbered stars: 1 amine (or outer) side, 2 acyl side, 3 side chain; on linkers, the order of the positions; unused ones are H or OH. Square brackets hold non-standard residues; d marks the D form. Side chains are listed from the residue outwards. * marks the point of attachment. C18 diacid = O=C(O)CCCCCCCCCCCCCCCCC(=O)*; C16 diacid = O=C(O)CCCCCCCCCCCCCCC(=O)*; γGlu = O=C(O)[C@H](CCC(=O)[*:2])N[*:1]; AEEA = NCCOCCOCC(=O)O; Aib = CC(C)(N)C(=O)O
Entries annotated with measured EC50
Write down the numeric answer in pM and omit the unit.

Please review the entries below; each comes with its answer.
INSERT INTO assay_data (substance, observation_type, val) VALUES
  ('Y[Aib]EGTFTSDYSILLEEQAAREFIEWLLAGGPSSK([AEEA-AEEA-γGlu-C18 diacid])APPPSGGGEASELSTAALGRLSAELHRLATLPRTETGSGSP-NH2 [Compound 31]', 'EC50', 4.73),
  ('H[Aib]HGTFTSDYSILLEEQAAREFIEWLLAGGPSSGEASHLSTAALGRLSAK([AEEA-AEEA-γGlu-C18 diacid])LHRLATLPRTETGSGSP-NH2 [Compound 87]', 'EC50', 7.26),
  ('H[Aib]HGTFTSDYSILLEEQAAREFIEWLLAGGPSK([AEEA-AEEA-γGlu-C18 diacid])GEASQLSTAALGRLSAELHTLATLPRTETGSGSP-NH2 [Compound 63]', 'EC50', 1.6);

Please report the recorded EC50 for H[Aib]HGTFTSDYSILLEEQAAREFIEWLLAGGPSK([AEEA-AEEA-γGlu-C16 diacid])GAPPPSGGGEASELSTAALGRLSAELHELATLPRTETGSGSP-NH2 [Compound 12] .
2.62
